Origin of values: patent EP1135374B9

Experimental Target: purified αllbβ3 receptor (Homo sapiens, UniProt P05106+P08514)
Measurement Description: similar competitive binding assay with 125I-echistatin on αllbβ3 receptor, used for the specificity index
Condition: Table 14; specificity index IC50 αllbβ3/ IC50 αvβ3
Specificity αIIβ3 / αvβ3 for assorted compounds
Please state the value as a number alone, without comment.

Compound	Specificity αIIβ3 / αvβ3
O=C(NC(CNC(=O)c1ccc(CN(CCc2nc3ccccc3[nH]2)C(=O)CCC2CCCC2)cc1)C(=O)O)OCc1ccccc1 (centres unmarked)	0.6
CC(=O)N(CCc1nc2ccccc2[nH]1)Cc1ccc(C(=O)NCC(NC(=O)OCc2ccccc2)C(=O)O)cc1 (centres unmarked)	0.3
O=C(NC(CNC(=O)c1ccc(CN(CCc2nc3ccccc3[nH]2)C(=O)CCc2ccccc2)cc1)C(=O)O)OCc1ccccc1 (centres unmarked)	0.7
O=C(NC(CNC(=O)c1ccc(CNCCc2nc3ccccc3[nH]2)cc1)C(=O)O)OCc1ccccc1 (centres unmarked)	0.2

// moving on: another record for Specificity αIIβ3 / αvβ3
compound COCC(=O)N(CCc1nc2ccccc2[nH]1)Cc1ccc(C(=O)NCC(NC(=O)OCc2ccccc2)C(=O)O)cc1 (centres unmarked) , Specificity αIIβ3 / αvβ3 observed: 0.5

###

Experimental Target: purified αllbβ3 receptor (Homo sapiens, UniProt P05106+P08514)
Measurement Description: similar competitive binding assay with 125I-echistatin on αllbβ3 receptor, used for the specificity index
Condition: Table 16; specificity index IC50 αllbβ3/ IC50 αvβ3
Method: To measure the relative affinity of the test compounds for αvβ3 receptors versus affinity for αllbβ3 receptors, similar competitive assays were carried out using purified αllbβ3 receptor and ^125I-echistatin (iodinated using the lactoperoxidase method). The specificity index, which is a measure of the relative binding affinity for αvβ3, versus αllbβ3, may be determined by dividing the IC50 value for αllbβ3 by the IC50 value for αvβ3.
Outcome Measure: Specificity αllbβ3 / αvβ3
Please state the value as a number alone, without comment.

Known results for molecules:
Molecule	Specificity αllbβ3 / αvβ3
O=C(N[C@@H](CNC(=O)c1ccc(CN(Cc2nc3cc(Cl)ccc3[nH]2)C(=O)NC2CCCCC2)cc1)C(=O)O)OCc1ccccc1 [Example 5-94]	399
CCCCOC(=O)N[C@@H](CNC(=O)c1ccc(CN(Cc2nc3ccccc3[nH]2)C(=O)Nc2ccc(C(=O)OCC)cc2)cc1)C(=O)O [Example 5-91]	1183

purified αllbβ3 receptor (Homo sapiens, UniProt P05106+P08514) data for O=C(NC[C@H](NS(=O)(=O)c1ccccc1)C(=O)O)c1ccc(CN(Cc2nc3ccccc3[nH]2)C(=O)NC2CCCCC2)cc1 [Example 5-81] ; its Specificity αllbβ3 / αvβ3: 8.0

purified αllbβ3 receptor (Homo sapiens, UniProt P05106+P08514) data for COCC(=O)N(Cc1ccc(C(=O)NC[C@H](NS(=O)(=O)c2ccccc2)C(=O)O)cc1)Cc1nc2ccccc2[nH]1 [Example 5-80] ; its Specificity αllbβ3 / αvβ3: 11

purified αllbβ3 receptor (Homo sapiens, UniProt P05106+P08514) data for CCCCOC(=O)N[C@@H](CNC(=O)c1ccc(CN(Cc2nc3ccccc3[nH]2)C(=O)Nc2ccccc2)cc1)C(=O)O [Example 5-83] ; its Specificity αllbβ3 / αvβ3: 1689

purified αllbβ3 receptor (Homo sapiens, UniProt P05106+P08514) data for CC(C)NC(=O)N(Cc1ccc(C(=O)NC[C@H](NC(=O)OCc2ccccc2)C(=O)O)cc1)Cc1nc2ccccc2n1C [Example 5-93] ; its Specificity αllbβ3 / αvβ3: 124

###

IC50 for assorted molecules
Experimental Target: αvβ3 receptor (purified from human placenta) (Homo sapiens, UniProt P05106+P06756)
Construct: αvβ3 receptor (purified from human placenta); from tissue; host or cells: human placenta
Measurement Description: competition radioligand binding assay, 125I-echistatin to αvβ3 receptor
Condition: Table 10; αvβ3, inhibition of specific 125I-echistatin binding
Reply with just the number (in nM).

molecule CCOC(=O)N(Cc1ccc(C(=O)NC[C@H](NC(=O)OCc2ccccc2)C(=O)O)cc1)Cc1nc2ccccc2[nH]1 , IC50 observed: 7.2

molecule CC(=O)OC(C(=O)N(Cc1ccc(C(=O)NC[C@H](NC(=O)OCc2ccccc2)C(=O)O)cc1)Cc1nc2ccccc2[nH]1)c1ccccc1 (stereo partly drawn) , IC50 observed: 4.4

molecule O=C(N[C@@H](CNC(=O)c1ccc(CN(Cc2nc3ccccc3[nH]2)C(=O)NS(=O)(=O)c2ccc(Cl)cc2)cc1)C(=O)O)OCc1ccccc1 , IC50 observed: 19.6

###

Experimental Target: αvβ3 receptor (purified from human placenta) (Homo sapiens, UniProt P05106+P06756)
Construct: αvβ3 receptor (purified from human placenta); from tissue; host or cells: human placenta
Measurement Description: competition radioligand binding assay, 125I-echistatin to αvβ3 receptor
Condition: Table 10; αvβ3, inhibition of specific 125I-echistatin binding
Bucketed by reported IC50, buckets being range 1: < 3 nM; range 2: ≥ 3 nM and < 4 nM; range 3: ≥ 4 nM

Reference set (10 entries):
Molecule	Category Label
O=C(N[C@@H](CNC(=O)c1ccc(CN(Cc2nc3ccccc3[nH]2)C(=O)C2CCCCC2)cc1)C(=O)O)OCc1ccccc1 [Example 5-15]	range 3
O=C(N[C@@H](CNC(=O)c1ccc(CN(Cc2nc3ccccc3[nH]2)C(=O)Nc2ccc(F)cc2)cc1)C(=O)O)OCc1ccccc1 [Example 5-49]	range 3
O=C(N[C@@H](CNC(=O)c1ccc(CN(Cc2nc3ccccc3[nH]2)C(=O)N2CCOCC2)cc1)C(=O)O)OCc1ccccc1 [Example 5-42]	range 1
O=C(N[C@@H](CNC(=O)c1ccc(CN(Cc2nc3ccccc3[nH]2)C(=O)Nc2ccccc2)cc1)C(=O)O)OCc1ccccc1 [Example 5-27]	range 1
O=C(N[C@@H](CNC(=O)c1ccc(CN(Cc2nc3ccccc3[nH]2)C(=O)NCc2ccccc2)cc1)C(=O)O)OCc1ccccc1 [Example 5-29]	range 3
CCOCC(=O)N(Cc1ccc(C(=O)NC[C@H](NC(=O)OCc2ccccc2)C(=O)O)cc1)Cc1nc2ccccc2[nH]1 [Example 5-26]	range 2
CN(C)CC(=O)N(Cc1ccc(C(=O)NC[C@H](NC(=O)OCc2ccccc2)C(=O)O)cc1)Cc1nc2ccccc2[nH]1 [Example 5-24]	range 3
CCOC(=O)CCNC(=O)N(Cc1ccc(C(=O)NC[C@H](NC(=O)OCc2ccccc2)C(=O)O)cc1)Cc1nc2ccccc2[nH]1 [Example 5-54]	range 1
O=C(N[C@@H](CNC(=O)c1ccc(CN(Cc2nc3ccccc3[nH]2)C(=O)CCC2CCCC2)cc1)C(=O)O)OCc1ccccc1 [Example 5-14]	range 3
CC(C)C(=O)N(Cc1ccc(C(=O)NC[C@H](NC(=O)OCc2ccccc2)C(=O)O)cc1)Cc1nc2ccccc2[nH]1 [Example 5-13]	range 2

Now take the following molecule into account.
Consider O=C(N[C@@H](CNC(=O)c1ccc(CN(Cc2nc3ccccc3[nH]2)C(=O)Nc2ccc(Cl)cc2)cc1)C(=O)O)OCc1ccccc1 [Example 5-35] . To which IC50 class does it belong? range 3

###

IC50 for assorted compounds
Experimental Target: αvβ3 receptor (purified from human placenta) (Homo sapiens, UniProt P05106+P06756)
Construct: αvβ3 receptor (purified from human placenta); from tissue; host or cells: human placenta
Measurement Description: competition radioligand binding assay, 125I-echistatin to αvβ3 receptor
Condition: Table 10; αvβ3, inhibition of specific 125I-echistatin binding
Reply with just the number (in nM).

Known results for compounds:
Compound	Outcome Measure	Units Of Measure	Observed Value
CC(C)(C)NC(=O)N(Cc1ccc(C(=O)NC[C@H](NC(=O)OCc2ccccc2)C(=O)O)cc1)Cc1nc2ccccc2[nH]1	IC50	nM	2.3
CCOC(=O)[C@H](CC(C)C)NC(=O)N(Cc1ccc(C(=O)NC[C@H](NC(=O)OCc2ccccc2)C(=O)O)cc1)Cc1nc2ccccc2[nH]1	IC50	nM	3.8
COc1ccc(OC(=O)N(Cc2ccc(C(=O)NC[C@H](NC(=O)OCc3ccccc3)C(=O)O)cc2)Cc2nc3ccccc3[nH]2)cc1	IC50	nM	4.4
CCNC(=O)N(Cc1ccc(C(=O)NC[C@H](NC(=O)OCc2ccccc2)C(=O)O)cc1)Cc1nc2ccccc2[nH]1	IC50	nM	2.2
O=C(N[C@@H](CNC(=O)c1ccc(CN(Cc2nc3ccccc3[nH]2)C(=O)NC2CCCCC2)cc1)C(=O)O)OCc1ccccc1	IC50	nM	0.65
CCOC(=O)CCC(=O)N(Cc1ccc(C(=O)NC[C@H](NC(=O)OCc2ccccc2)C(=O)O)cc1)Cc1nc2ccccc2[nH]1	IC50	nM	4.6

// moving on: another record for IC50
compound CCOC(=O)c1ccc(NC(=O)N(Cc2ccc(C(=O)NC[C@H](NC(=O)OCc3ccccc3)C(=O)O)cc2)Cc2nc3ccccc3[nH]2)cc1 , IC50 observed: 2.2

###

Specificity αllbβ3 / αvβ3 for assorted compounds
Experimental Target: purified αllbβ3 receptor (Homo sapiens, UniProt P05106+P08514)
Measurement Description: similar competitive binding assay with 125I-echistatin on αllbβ3 receptor, used for the specificity index
Condition: Table 12; specificity index IC50 αllbβ3/ IC50 αvβ3
Please state the value as a number alone, without comment.

Known results for compounds:
Compound	Specificity αllbβ3 / αvβ3
CC(=O)N(Cc1ccc(C(=O)NC[C@H](NC(=O)OC(C)(C)C)C(=O)O)cc1)Cc1nc2ccccc2[nH]1 [Example 5-61]	324
CC(C)(C)OC(=O)N[C@@H](CNC(=O)c1ccc(CN(Cc2nc3ccccc3[nH]2)C(=O)CCC2CCCC2)cc1)C(=O)O [Example 5-64]	499
CC(C)(C)OC(=O)N[C@@H](CNC(=O)c1ccc(CNCc2nc3ccccc3[nH]2)cc1)C(=O)O [Example 5-60]	90
COCC(=O)N(Cc1ccc(C(=O)NC[C@H](NC(=O)OC(C)(C)C)C(=O)O)cc1)Cc1nc2ccccc2[nH]1 [Example 5-62]	419

// moving on: another record for Specificity αllbβ3 / αvβ3
compound CC(C)(C)OC(=O)N[C@@H](CNC(=O)c1ccc(CN(Cc2nc3ccccc3[nH]2)C(=O)CCc2ccccc2)cc1)C(=O)O [Example 5-63] , Specificity αllbβ3 / αvβ3 observed: 293
